biological target: aldose reductase (Rattus norvegicus); construct: rat lens homogenate used as a source of enzyme; from tissue; host or cells: rat lens homogenate; test: in vitro inhibition of aldose reductase from rat lens homogenate (DL-glyceraldehyde substrate, NADPH, spectrophotometry at 340 nm); assay type: biochemical; conditions: concentration 10^-8 mol/liter; read-out: Inhibition relative to the control activity, %
property name: inhibition at 0.01 µM (%)

Worked cases, inhibition at 0.01 µM given:
>>> print(df.to_string())
                                   compound  result_value
0  O=C(O)CN1C(=S)CCc2cc(Cl)ccc21 [Example 154]            29
1  O=C(O)CN1C(=S)CSc2cc(F)ccc21 [Example 117]             5
2  CC1Sc2ccc(F)cc2N(CC(=O)O)C1=O (centres unmarked) [Example 136]            11
3  O=C(O)CN1C(=S)C(c2ccccc2)Sc2ccccc21 (centres unmarked) [Example 130]            17
4  CC1Sc2ccc(F)cc2N(CC(=O)O)C1=S (centres unmarked) [Example 137]            13

(P) O=C(O)CN1C(=S)CSc2cc(Cl)c(C(F)(F)F)cc21 [Example 129]
(Q) CC1Sc2ccccc2N(CC(=O)O)C1=S (centres unmarked) [Example 132]
(R) O=C(O)CN1C(=S)CSc2cc(Cl)ccc21 [Example 127]
INPUT: Kindly order the items shown according to inhibition at 0.01 µM, from the highest value down. Return the labels ranked in the requested order, please.
OUTPUT: R, Q, P
(R: 28%, Q: 16%, P: 5%)

(I) O=C(O)CN1C(=O)CSc2ncccc21 [Example 110]
(II) O=C(O)CN1C(=S)CSc2ccc(F)cc21 [Example 119]
INPUT: Short answer wanted: higher inhibition at 0.01 µM, I or II ? Reply with the label of the item you choose.
OUTPUT: II
(II: 22%, I: 4%)

Hey, just so you know, these numbers are from patent US4755509A.
